Molecular target: MAGL (recombinant wild-type) (Homo sapiens, UniProt Q99685)
Sequence (Q99685 1-303): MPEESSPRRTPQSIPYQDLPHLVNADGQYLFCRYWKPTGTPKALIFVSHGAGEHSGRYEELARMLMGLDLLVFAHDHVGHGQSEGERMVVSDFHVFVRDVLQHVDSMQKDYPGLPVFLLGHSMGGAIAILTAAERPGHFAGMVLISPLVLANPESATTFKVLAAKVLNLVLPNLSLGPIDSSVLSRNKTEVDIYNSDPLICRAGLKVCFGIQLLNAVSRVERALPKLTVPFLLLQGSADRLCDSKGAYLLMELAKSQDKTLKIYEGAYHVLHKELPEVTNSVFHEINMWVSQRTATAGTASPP
Test: 4-NPA assay: MAGL inhibitory activity by hydrolysis of 4-nitrophenylacetate, absorbance at 405 nm
Details: 4-NPA assay (values without footnote [a])
pIC50: −log10 of the molar value.
So basically: pIC50 at 9 or higher? That is Met. Lower than 9? That is Not met.

Has COc1cccc(C(c2ccc(F)cc2)C2CCN(C(=O)c3ccc4c(c3)NC(=O)CO4)CC2)c1 (single isomer, unassigned) [Example 121] a recorded pIC50 greater than or equal to 9?
Met

Test whether the molecule COc1cccc([C@@H](c2ccccc2)C2CCN(C(=O)c3ccc4c(c3)NC(=O)CO4)CC2)c1 (single isomer, unassigned) records pIC50 of 9 or higher.
Met

Test whether the molecule O=C1COc2ccc(C(=O)N3CCC(C(O)(c4ccccc4)c4ccccc4)CC3)cc2N1 records pIC50 of 9 or higher.
Not met

Is reported pIC50 greater than or equal to 9 here: O=C1COc2ccc(C(=O)N3CCC([C@H](c4ccccc4)c4ccc(OCCF)cc4)CC3)cc2N1
Not met

----------
The compounds listed here are annotated with their pIC50.
Target: MAGL (recombinant wild-type) (Homo sapiens)
Test: 4-NPA assay: MAGL inhibitory activity by hydrolysis of 4-nitrophenylacetate, absorbance at 405 nm
Details: 4-NPA assay (values without footnote [a])
Schema: pIC50 number; meaning minus log10 of the concentration expressed in molar units.

Illustrative cases are given below, each with its answer.
O=C1COc2ccc(C(=O)N3CCC(c4cn(Cc5cccc(Cl)c5)c5ccccc45)CC3)cc2N1 [Example 35] :: 7.43
O=C1COc2ccc(C(=O)N3CCC(C(c4ccccc4)c4ccccc4)CC3)cc2N1 [Example 2] :: 9.30
O=C1COc2ccc(C(=O)N3CCC(c4cc(-c5ccc(Cl)cc5)[nH]n4)CC3)cc2N1 [Example 44] :: 6.41

// below: pIC50 requested for another compound
Fill in pIC50 for O=C1COc2ccc(C(=O)N3CCC(C(c4ccccc4)c4ccc(OCCF)cc4)CC3)cc2N1 (stereo not shown) [Example 73] tested with MAGL (recombinant wild-type) (Homo sapiens).
9.14

----------
Target: MAGL (recombinant wild-type) (Homo sapiens)
Assay: 4-NPA assay: MAGL inhibitory activity by hydrolysis of 4-nitrophenylacetate, absorbance at 405 nm
Details: 4-NPA assay (values without footnote [a])
pIC50 reference
pIC50 here is simply -log10 of the concentration when that concentration is written in mol/L.

O=C1COc2ccc(C(=O)N3CCC(c4n[nH]c5cc(F)ccc45)CC3)cc2N1 [Example 43] :: 6.74
O=C1COc2ccc(C(=O)N3CCC([C@@H](c4ccccc4)c4ccc(F)cc4)CC3)cc2N1 (single isomer, unassigned) [Example 6] :: 9.05
O=C1COc2ccc(C(=O)N3CCC(c4c[nH]c5cc(Cl)ccc45)CC3)cc2N1 [Example 21] :: 7.85

Return pIC50 for the following molecule: O=C1COc2ccc(C(=O)N3CCC(c4n[nH]c5ccccc45)CC3)cc2N1 [Example 36]
6.80
